target.under.test: recombinant human GST-Syk (Homo sapiens, UniProt P43405)
Construct: purchased Carna Biosciences 08-176
assay.info: Homogeneous Time-Resolved Fluorescence (HTRF) assay for the recombinant human Syk enzyme
Format: biochemical
experimental.parameters: ATP 25 μM, 10-dose titration, read-out: rhSYK IC50
Description: Syk inhibition may be determined using the following assay protocol: Homogeneous Time-Resolved Fluorescence (HTRF) Assay for the Recombinant Human Syk Enzyme: A recombinant GST-hSyk fusion protein was used to measure potency of compounds to inhibit human Syk activity. […] The resulting HTRF signal was measured after 30 minutes on an EnVision (Perkin-Elmer) reader using a time-resolved fluorescence protocol. […]
The entries below are paired with their reported log10 of IC50.
For clarity, the numbers are log10 values of IC50 expressed in nM.

Worked set:
Cc1cc(Nc2nccc(C(F)(F)F)n2)cc(-n2cnc(C3(O)CCN(C(N)=O)CC3)c2)c1 [Example 117] ... 0.95
Cc1cc(Nc2nccc(C(F)(F)F)n2)cc(-n2cnc([C@]3(O)CC[C@@H](O)CC3)c2)c1 [Example 37] ... 0.57
Cc1cc(Nc2nccc(C(F)(F)F)n2)cc(-n2cnc(C3(O)CCNC(=O)CC3)c2)c1 (centres unmarked) [Example 109] ... 1.29
Cc1cc(Nc2nccc(C(F)(F)F)n2)cc(-n2cnc(C(C)(O)[C@H]3CC[C@H](C(=O)O)CC3)c2)c1 (relative stereo) [Example 10] ... 0.25

Query: Tell me measured log10 of IC50 for Cc1cc(Nc2cc(C(F)(F)F)ccn2)nc(-n2cnc([C@]3(O)CC[C@@H](C(=O)O)CC3)c2)c1 [Example 27] please.
Result: -0.12

Query: For CCOC(=O)C1CCC(O)(c2cn(-c3cc(C)cc(Nc4nccc(C(F)(F)F)n4)c3)cn2)CC1 (centres unmarked) [1, Step 1] , write its log10 of IC50.
Result: 1.10

Query: Answer with reported log10 of IC50 of Cc1cc(Nc2nccc(C(F)(F)F)n2)cc(-n2cnc([C@H]3CC[C@@H](C(=O)O)CC3)c2)c1 [2 (cis)]
Result: 1.10

Query: Please give the documented log10 of IC50 of Cc1cc(Nc2cc(C(F)(F)F)ccn2)nc(-n2cnc([C@]3(O)CC[C@@H](CC(=O)O)CC3)c2)c1 [Example 14]
Result: -0.06

Query: Output log10 of IC50 of Cc1cc(Nc2cc(C(F)(F)F)ccn2)nc(-n2cnc(C3(O)CCN(C(N)=O)CC3)c2)c1 [Example 116]
Result: 0.56

Query: Provide measured log10 of IC50 value, entry: Cc1cc(Nc2cc(C3CC3)ccn2)nc(-n2cnc([C@]3(O)CC[C@@H](O)CC3)c2)c1 [Example 45]
Result: 0.14

Query: Annotate the compound Cc1cc(Nc2nccc(C(F)(F)F)n2)cc(-n2cnc(C3=CCC(C(=O)O)C(C)(C)C3)c2)c1 (centres unmarked) [Example 4] with its measured log10 of IC50.
Result: -0.05

Query: Entry Cc1cc(Nc2nccc(C)n2)cc(-n2cnc(C(C)(O)[C@H]3CC[C@H](C(=O)O)CC3)c2)c1 (relative stereo) [Example 9] needs its log10 of IC50 filled in; supply it.
Result: 1.18

Query: Return value of log10 of IC50 for input Cc1cc(Nc2nccc(C(F)(F)F)n2)cc(-n2cnc([C@]3(O)CC[C@@H](CC(=O)O)CC3)c2)c1 [Example 16] , no commentary.
Result: 0.21

Query: Given the compound Cc1cc(Nc2nccc(C(F)(F)F)n2)cc(-n2cnc([C@H]3CC[C@H](C(=O)O)CC3)c2)c1 [2 (trans)] , write its reported log10 of IC50.
Result: 0.08

Query: Write down log10 of IC50 measured for item Cc1cc(Nc2cc(C(F)(F)F)ccn2)nc(-n2cnc([C@]3(O)CC[C@@H](O)CC3)c2)c1 [Example 62]
Result: 0.13

Query: Return the recorded log10 of IC50 value; entry: Cc1cc(Nc2nccc(C(F)(F)F)n2)cc(-n2cnc(-c3ccc(C(=O)O)cc3)c2)c1 [Example 71]
Result: 0.23

Query: Return value of log10 of IC50 for input CNC(=O)[C@H]1CC[C@](O)(c2cn(-c3cc(C)cc(Nc4nccc(C(F)(F)F)n4)c3)cn2)CC1 [Example 1] , no commentary.
Result: 0.79
